Tested on: Staphylococcus aureus
ASSAY TEXT: Antibacterial activity against methicillin-resistant Staphylococcus aureus NRS100 after 18 hrs by broth microdilution method
PROPERTY MEASURED: MIC

// solved cases for MIC follow
C=C1CCC[C@@]23N(C(=O)OCC)CC[C@@]12c1cc(Cl)ccc1N3C    > 64 µg/mL
C=C1CCCC[C@@]23N(C(=O)CCC(=O)O)CC[C@@]12c1c(C)cc(C)cc1N3C    > 64 µg/mL
C=C1CCCC[C@@]23N(C(=O)OC)CC[C@@]12c1cc(Cl)ccc1N3C    > 64 µg/mL

Entry C=C1CCCC[C@@]23N(C(C)=O)CC[C@@]12c1c(C)cc(C)cc1N3C , MIC reported as > 64 µg/mL

Short answer for C=C1CCCC[C@@]23N(C(=O)OC)CC[C@@]12c1c(C)cc(C)cc1N3CC : MIC was > 64 µg/mL

Value of measured MIC for the entry C=C1CCCC[C@@]23N(C(=O)OCC)CC[C@@]12c1cc(F)c(OC)cc1N3C : > 64 µg/mL

The value of MIC measured for the molecule C=C1CCCC[C@@]23N(C(=O)C(F)(F)F)CC[C@@]12c1c(C)cc(C)cc1N3C turned out to be > 64 µg/mL

For reference, reported MIC for C=C1CCCC[C@@]23N(C(=O)OCC)CC[C@@]12c1c(C)cc(C)cc1N3C stands at > 64 µg/mL

Input C=C1CCCC[C@@]23N(C(=O)NCc4ccccc4)CC[C@@]12c1c(C)cc(C)cc1N3C . Output MIC: > 64 µg/mL

====

ASSAY TEXT: Cytotoxicity against human HeLa cells after 24 hrs by CellTiter-Glo luminescent cell viability assay
Type: toxicity, cell-based
GI50 at 24 h values, listed per item
I only need the number, in µg/mL, no unit after it.

Completed entries (count: 8):
C=C1CCCC[C@@]23N(C(=O)OC)CC[C@@]12c1cc(C)ccc1N3C    27
C=C1CCC[C@@]23N(C(=O)OC)CC[C@@]12c1cc(C)ccc1N3C    15
C=C1CCCC[C@@]23N(C(=O)OC)CC[C@@]12c1c(C)cc(C)cc1N3C    20
C=C1CCCC[C@@]23N(C(=O)OC)CC[C@@]12c1c(C)cc(C)cc1N3CC    30
C=C1CCCC[C@@]23N(CC)CC[C@@]12c1c(C)cc(C)cc1N3C    18
C=C1CCCC[C@@]23N(C(=N)N)CC[C@@]12c1c(C)cc(C)cc1N3C    19
C=C1CCC[C@@]23N(C(=O)OC)CC[C@@]12c1cc(Cl)ccc1N3C    41
C=C1CCCC[C@@]23N(C(N)=O)CC[C@@]12c1c(C)cc(C)cc1N3C    19

Sure, the documented GI50 at 24 h for C=C1CCCC[C@@]23N(C(=O)OC)CC[C@@]12c1ccccc1N3C is 30

C=C1CCCC[C@@]23N(C(=O)OC)CC[C@@]12c1cc(Cl)ccc1N3C has a reported GI50 at 24 h of 53

Lab note: C#CCN1c2cc(C)cc(C)c2[C@@]23CCN(C(=O)OC)[C@@]12CCCCC3=C gave GI50 at 24 h of 17

====

ASSAY TEXT: Cytotoxicity against human HeLa cells after 24 hrs by CellTiter-Glo luminescent cell viability assay
Format: toxicity, cell-based
In this section, each of the molecules is paired with its reported GI50 at 24 h.
Use µg/mL as the unit, but write only the number.

C=C1CCCC[C@@]23N(C(=O)OC(C)(C)C)CC[C@@]12c1c(C)cc(C)cc1N3C    47
C=C1CCC[C@@]23N(C(=O)OCC)CC[C@@]12c1cc(Cl)ccc1N3C    41

Okay, next one:
Recorded GI50 at 24 h (molecule C=C1CCCC[C@@]23N(C(C)=O)CC[C@@]12c1c(C)cc(C)cc1N3C ): 15
